# experiment notes: XTT cytotoxicity assay on PMA-differentiated U937 cells
# settings: human, PMA-differentiated U937 cells (macrophage-like), pH 7.2

| entry smiles | unit annotation | viability at 72 h, 200 μg/mL |
| --- | --- | --- |
| NNC(=O)c1ccncc1 | % | 80 |
